Target: Acetylcholinesterase (Rattus norvegicus, UniProt P37136)
Sequence (P37136 whole entry): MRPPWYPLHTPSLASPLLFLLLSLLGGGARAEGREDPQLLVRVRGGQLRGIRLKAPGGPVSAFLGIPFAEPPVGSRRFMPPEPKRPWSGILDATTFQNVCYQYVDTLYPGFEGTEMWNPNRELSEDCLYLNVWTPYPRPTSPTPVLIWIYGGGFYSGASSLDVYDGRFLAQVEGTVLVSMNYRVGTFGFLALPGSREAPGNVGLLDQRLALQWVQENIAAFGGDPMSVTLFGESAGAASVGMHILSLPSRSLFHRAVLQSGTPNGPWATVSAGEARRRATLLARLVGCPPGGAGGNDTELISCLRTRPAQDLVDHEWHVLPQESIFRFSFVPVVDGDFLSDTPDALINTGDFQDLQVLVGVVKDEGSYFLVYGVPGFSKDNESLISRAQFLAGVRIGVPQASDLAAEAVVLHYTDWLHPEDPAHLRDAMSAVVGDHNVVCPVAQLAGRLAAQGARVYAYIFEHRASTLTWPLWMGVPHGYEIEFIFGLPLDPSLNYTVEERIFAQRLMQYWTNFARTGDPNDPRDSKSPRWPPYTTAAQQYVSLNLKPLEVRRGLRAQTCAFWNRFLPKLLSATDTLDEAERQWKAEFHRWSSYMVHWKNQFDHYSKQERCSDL
Experiment: Inhibition of AChE in rat cerebral cortex homogenates using acetylthiocholine iodide as substrate after 8 mins by Ellman's spectrophotometric method
Type: tissue-based
Details: read-out: IC50
pIC50: −log10 of the molar value.
Decision: pIC50 compared against 6; not below it gives satisfied, below it gives not satisfied.

| structure | assigned class |
| --- | --- |
| CCN(CC)C(=O)C1CCN(C(=O)Nc2cccc(Cn3nc(-c4ccc5ccccc5c4)ccc3=O)c2)CC1 | satisfied |
| CCN(CC)C(=O)C1CCN(C(=O)Nc2cccc(Cn3nc(-c4cccc5ccccc45)ccc3=O)c2)CC1 | satisfied |
| c1ccc(CN2CCC(CCN=c3cc4c(n[nH]3)-c3ccccc3C4)CC2)cc1 | satisfied |
| CCN(CC)C(=O)C1CCN(C(=O)Nc2cccc(Cn3nc(Nc4ccccc4)ccc3=O)c2)CC1 | not satisfied |
| CCN(CC)C(=O)C1CCN(C(=O)Nc2cccc(Cn3nc(Nc4ccc(C)cc4)ccc3=O)c2)CC1 | not satisfied |
| CCN(CC)C(=O)C1CCN(C(=O)Nc2cccc(Cn3nc(-c4cccc(C#N)c4)ccc3=O)c2)CC1 | satisfied |
| CCN(CC)C(=O)C1CCN(C(=O)Nc2cccc(Cn3nc(-c4ccc(C)cc4)ccc3=O)c2)CC1 | not satisfied |
| Cc1ccccc1Nc1ccc(=O)n(Cc2cccc(NC(=O)N3CCC(C(=O)N(C)C(C)C)CC3)c2)n1 | satisfied |

====

Target: Butyrylcholinesterase (Rattus norvegicus, UniProt Q9JKC1)
Sequence (Q9JKC1 whole entry): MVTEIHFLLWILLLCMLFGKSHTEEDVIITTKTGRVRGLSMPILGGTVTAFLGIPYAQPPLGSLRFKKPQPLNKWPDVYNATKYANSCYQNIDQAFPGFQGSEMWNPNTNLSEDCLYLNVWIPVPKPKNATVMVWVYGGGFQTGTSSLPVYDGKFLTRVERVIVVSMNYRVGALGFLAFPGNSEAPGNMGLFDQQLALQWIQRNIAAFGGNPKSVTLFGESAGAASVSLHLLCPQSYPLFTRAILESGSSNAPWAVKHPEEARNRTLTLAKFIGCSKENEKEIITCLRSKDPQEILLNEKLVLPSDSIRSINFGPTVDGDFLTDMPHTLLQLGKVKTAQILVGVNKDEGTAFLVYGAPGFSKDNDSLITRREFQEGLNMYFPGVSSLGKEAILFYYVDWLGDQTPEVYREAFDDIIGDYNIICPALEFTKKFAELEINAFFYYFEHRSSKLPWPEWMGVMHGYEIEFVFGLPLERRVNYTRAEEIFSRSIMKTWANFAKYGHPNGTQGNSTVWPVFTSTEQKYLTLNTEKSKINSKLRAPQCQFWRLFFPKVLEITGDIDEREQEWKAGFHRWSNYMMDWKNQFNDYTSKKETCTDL
Assay: Inhibition of rat serum BuChE using S-butyrylthiocholine iodide as substrate after 8 mins by Ellman's spectrophotometric method
pIC50: −log10 of the molar value.

| structure | pIC50 |
| --- | --- |
| CCN(CC)C(=O)C1CCN(C(=O)Nc2cccc(Cn3nc(-c4ccccc4)ccc3=O)c2)CC1 | < 4.40 |
| CCN(CC)C(=O)C1CCN(C(=O)Nc2cccc(Cn3nc(-c4cccc5ccccc45)ccc3=O)c2)CC1 | < 4.40 |
| Cc1ccccc1Nc1ccc(=O)n(Cc2cccc(NC(=O)N3CCC(C(=O)N(C)C(C)C)CC3)c2)n1 | 5.00 |
| CCN(C(=O)C1CCN(C(=O)Nc2cccc(Cn3nc(Nc4ccccc4C)ccc3=O)c2)CC1)C(C)C | 5.26 |
| CCN(C)C(=O)C1CCN(C(=O)Nc2cccc(Cn3nc(Nc4ccccc4C)ccc3=O)c2)CC1 | < 4.40 |
| CCN(CC)C(=O)C1CCN(C(=O)Nc2cccc(Cn3nc(Nc4ccccc4)ccc3=O)c2)CC1 | < 4.40 |
| CCN(CC)C(=O)C1CCN(C(=O)Nc2cccc(Cn3nc(Nc4ccccc4C)ccc3=O)c2)CC1 | < 4.40 |

====

Species: Rattus norvegicus
Test: Selectivity ratio of IC50 for rat serum BuChE to IC50 for AChE in rat cerebral cortex homogenates
Type: tissue-based

| structure | Ratio IC50 |
| --- | --- |
| CCN(C)C(=O)C1CCN(C(=O)Nc2cccc(Cn3nc(Nc4ccccc4C)ccc3=O)c2)CC1 | > 84 |
| CCN(CC)C(=O)C1CCN(C(=O)Nc2cccc(Cn3nc(Nc4ccccc4)ccc3=O)c2)CC1 | > 12 |
| CCN(CC)C(=O)C1CCN(C(=O)Nc2cccc(Cn3nc(Nc4ccccc4C)ccc3=O)c2)CC1 | > 816 |
| CCN(C(=O)C1CCN(C(=O)Nc2cccc(Cn3nc(Nc4ccccc4C)ccc3=O)c2)CC1)C(C)C | 196 |
| CCN(CC)C(=O)C1CCN(C(=O)Nc2cccc(Cn3nc(-c4cccc5ccccc45)ccc3=O)c2)CC1 | > 212 |
| CCN(CC)C(=O)C1CCN(C(=O)Nc2cccc(Cn3nc(-c4ccccc4)ccc3=O)c2)CC1 | > 24 |
| Cc1ccccc1Nc1ccc(=O)n(Cc2cccc(NC(=O)N3CCC(C(=O)N(C)C(C)C)CC3)c2)n1 | 217 |
